B1: Ankyrin-1, residues 1405 to 1484; numbered along this chain, P16157 (parent)
chain: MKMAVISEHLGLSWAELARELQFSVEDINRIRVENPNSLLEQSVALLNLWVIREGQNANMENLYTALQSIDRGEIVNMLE

# Variants of: B1
# method: abundance fitness (aPCA) (normalised: wild type 0, dead -1); higher = more abundant; growth selection in yeast, the domain comes from the species named
# reported-conditions: Homo sapiens
reported-metric: abundance fitness
The reply should be a number, written without any unit.

See these solved cases before continuing.
{"variant-name": "R32Y", "abundance fitness": -0.43}
{"variant-name": "D27I", "abundance fitness": -0.043}
{"variant-name": "I28R", "abundance fitness": -0.571}
{"variant-name": "N35W", "abundance fitness": -0.222}
{"variant-name": "N57W", "abundance fitness": -0.175}

Problem: What value of abundance fitness has been reported for the following variant? I28Q
Result: -0.577

Problem: What value of abundance fitness has been reported for the following variant? G73K
Result: -0.289
